The values you see were collected from patent US9980943B2.

# System: β-galactosidase in CMV-LacZ C2C12 myotubes
# method-summary: CMV-LacZ secondary screen in C2C12 myotubes (β-Gal stabilizing assay)
# Assay type: cell-based, mouse
# test-conditions: 40 uM; CMV-LacZ C2C12 myotubes; 96-well format
# label = YES if CMV-LACZ in Myotubes (β-galactosidase activity relative to DMSO) < 1 else NO

Answer whether the compound CCOc1ccc(NC(=O)CN2C(=O)NC(CCSC)C2=O)cc1 (stereo not drawn) has CMV-LACZ in Myotubes (β-galactosidase activity relative to DMSO) strictly less than 1 NO

Note, next up: "CS(=O)(=O)Cc1cccc(C(=O)NN(c2ccccc2)c2ccccc2)c1" NO

Follow-up entry: CCCCS(=O)(=O)N1CCCC(C(=O)NCCc2ccccc2)C1 (stereo not drawn) YES

Please answer likewise for "O=C(CSc1nnc(C2CC2)n1C1CC1)c1cccs1" NO

Same again, this time with COc1cccc(N2C(=O)CC(N3CCc4ccccc4C3)C2=O)c1 (stereo not drawn) NO

Further, for "O=C(Nc1ccc(N2CCN(C(=O)c3ccccc3F)CC2)cc1)c1cncc(Br)c1" ? YES

Cool, now "COc1ccc(S(=O)(=O)N2CCN(C(=O)C3CCC3)CC2)cc1" YES
